B1: HDV Ribozyme (parent)
chain: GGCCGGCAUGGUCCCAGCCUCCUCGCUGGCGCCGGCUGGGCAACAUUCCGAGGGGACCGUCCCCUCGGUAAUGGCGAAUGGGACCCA

variants of: B1; experiment: self-cleavage, relative activity (ratio to wild type); higher = more cleavage; co-transcriptional
ASSAY READOUT: self-cleavage
Lab note: write the figure by itself, no unit.

Consider the worked cases shown below.
C58G C86G
0.969
C36U C49U
0.743
C49U G82U
0.47
G31U G39C
0.166
G59C A87U
0.981
A77C A78C
0.208

variant A16C U79C , self-cleavage observed: 0.8

Sure, the documented self-cleavage for C64U A70U is 1.01

Summary for this variant, G10C U23C : self-cleavage is 0.95

Per the record, C13U G35U has self-cleavage of 0.163

Note to self: self-cleavage recorded for G1A A51C was 0.0831

Where do the numbers come from? From the RNAGym collection of RNA variant scans (doi:10.7554/elife.80360).
